Assay: Inhibition of c-terminally truncated N-terminal 8xHis-tagged human Bcl-xL deletion mutant expressed in Escherichia coli BL21 (DE3) after 2 hrs by fluorescence polarization assay
pIC50: −log10 of the molar value.
Parameter measured: pIC50

Consider the following illustrative entries.
{"Smiles entry": "Cc1c(C(=O)O)c(-c2cccc(N3CCN(c4ccc(NS(=O)(=O)c5ccc(N[C@H](CCN(C)C)CSc6ccccc6)c(S(=O)(=O)C(F)(F)F)c5)cc4)CC3)c2)c(-c2ccc(Cl)cc2)n1C", "pIC50": 8.29}
{"Smiles entry": "Cc1c(C(=O)NCCCN2CCN(C)CC2)c(-c2cccc(N3CCN(c4ccc(NS(=O)(=O)c5cccc(OC(F)(F)F)c5)cc4)CC3)c2)c(-c2ccc(Cl)cc2)n1C", "pIC50": 5.78}
{"Smiles entry": "CCn1c(C)c(C(=O)O)c(-c2cccc(N3CCN(c4ccc(NS(=O)(=O)c5ccc(N[C@H](CCN6CCC(O)CC6)CSc6ccccc6)c(S(=O)(=O)C(F)(F)F)c5)cc4)CC3)c2)c1-c1ccc(Cl)cc1", "pIC50": 8.22}
{"Smiles entry": "Cc1c(C(=O)O)c(-c2cccc(N3CCN(c4ccc(NS(=O)(=O)c5ccc(N[C@H](CCN6CCC(C)(O)CC6)CSc6ccccc6)c(S(=O)(=O)C(F)(F)F)c5)cc4)CC3)c2)c(-c2ccc(Cl)cc2)n1C", "pIC50": 7.66}
{"Smiles entry": "CCCn1c(C)c(C(=O)O)c(-c2cccc(N3CCN(c4ccc(NS(=O)(=O)c5ccc(N[C@H](CCN6CCC(O)CC6)CSc6ccccc6)c(S(=O)(=O)C(F)(F)F)c5)cc4)CC3)c2)c1-c1ccc(Cl)cc1", "pIC50": 8.09}
{"Smiles entry": "CCS(=O)(=O)c1cccc(S(=O)(=O)Nc2ccc(N3CCN(c4cccc(-c5c(C(=O)NCCCN6CCN(C)CC6)c(C)n(C)c5-c5ccc(Cl)cc5)c4)CC3)cc2)c1", "pIC50": 6.02}
{"Smiles entry": "Cc1c(C(=O)O)c(-c2cccc(N3CCN(c4ccc(NS(=O)(=O)c5ccc(N[C@H](CCN6CCC(O)CC6)CSc6ccccc6)c(S(=O)(=O)C(F)(F)F)c5)cc4)CC3)c2)c(-c2ccc(Cl)cc2)n1C", "pIC50": 8.15}

A: Cc1c(C(=O)NCCCN2CCN(C)CC2)c(-c2cccc(N3CCN(c4ccc(NS(=O)(=O)c5cccc(S(C)(=O)=O)c5)cc4)CC3)c2)c(-c2ccc(Cl)cc2)n1C
B: Cc1c(C(=O)NCCCN2CCN(C)CC2)c(-c2cccc(N3CCN(c4ccc(NS(=O)(=O)c5cccc(S(=O)(=O)C6CC6)c5)cc4)CC3)c2)c(-c2ccc(Cl)cc2)n1C
C: Cc1c(C(=O)NCCCN2CCN(C)CC2)c(-c2cccc(N3CCN(c4ccc(NS(=O)(=O)c5cccc(Br)c5)cc4)CC3)c2)c(-c2ccc(Cl)cc2)n1C
Challenge: Thanks in advance: please rank these 3 entries by pIC50, highest to lowest. # format: label list in the order the request specifies
Response given: C, B, A
(C: 6.30, B: 5.99, A: 5.72)
